- experiment-notes: chemical genetic growth profiling, strain panel (AID 1159580);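 note: tested at 20 µM; growth read once vehicle control cultures reached saturation at 30 °C; 1 = growth at the plate median or of vehicle wells; lower values mean less growth of the strain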
- condition: S. cerevisiae deletion strains, growth OD, locus YNL233W, strain BNI4
In all, about 5,500 compounds went through this assay and about 2,000 (36%) were called active. About 18% were inconclusive and are not listed. Cut-off read from the data, not from the text of the source: active = normalized growth mostly below about 0.91 (no sharp cut-off); inconclusive = no clear call, values can overlap the other calls; inactive = mostly above about 0.92. The list shows a part of the results.
Outcome codes: 1.0 = active, 0.0 = inactive

| molecule | category-label |
| --- | --- |
| COc1cc2c(cc1OC)[C@@H]1C(=O)c3ccc(OC)c(CC=C(C)C)c3O[C@@H]1CO2 | 0.0 |
| COc1cc2c(cc1OC)C1C(=O)c3ccc4c(c3OC1CO2)CCC(C)(C)O4 (stereo not given) | 0.0 |
| COc1cc2c(cc1OC)[C@@H]1C(=O)c3ccc4c(c3O[C@@H]1CO2)C=CC(C)(C)O4 | 0.0 |
| CN(C)c1ccc(C(=C2C=CC(=[N+](C)C)C=C2)c2ccc(N(C)C)cc2)cc1 | 1.0 |
| COc1ccc2c(c1)O[C@@H]1COc3cc(OC)c(OC)cc3[C@@H]1C2=O | 1.0 |

The reported measurements were obtained from PubChem BioAssay AID1159580.
